test system: Influenza A/WSN/33 virus; assay: Influenza antiviral assay (real-time PCR); type: cell-based; conditions: A549 cells, 24 hour pre-incubation, 72 hours, read-out: Percent Inhibition
Tag: MET if measured inhibition at 30 µM is not below 90%, NOT MET if it is.

molecule: [N-]=[N+]=N[C@]1(CO)O[C@@H](n2cnc3c(=O)[nH]c(N)nc32)[C@H](O)[C@@H]1O
labelClass: NOT MET
--
molecule: [N-]=[N+]=N[C@]1(CO)O[C@@H](n2cnc3c(N)ncnc32)[C@H](F)[C@@H]1O
labelClass: MET
--
molecule: [N-]=[N+]=N[C@]1(CO)O[C@@H](n2cnc3c(=O)[nH]c(N)nc32)C(F)(F)[C@@H]1O
labelClass: MET
--
molecule: [N-]=[N+]=N[C@]1(CO)O[C@@H](n2ccc(N)nc2=O)[C@H](F)[C@@H]1O
labelClass: MET

----------
system: RSV A2; assay: RSV RT-PCR based assay; format: cell-based; details: human respiratory syncytial virus; RT-PCR assay; HEp-2 cells; 24 hour compound pre-incubation; RSV A2 at MOI 0.1; 4 days after infection; viral load; read-out: EC50

compound: CC(C)OC(=O)[C@H](C)NP(=O)(OC[C@@]1(N=[N+]=[N-])O[C@@H](n2ccc(N)nc2=O)[C@H](F)[C@@H]1O)Oc1ccccc1 (stereo partly drawn) [Compound 23]
EC50: 1 to 10 µM

compound: [N-]=[N+]=N[C@]1(CO)O[C@@H](n2cnc3nc(N)[nH]c(=O)c32)[C@H](O)[C@@H]1O [Compound 25]
EC50: > 100 µM

compound: CC(C)OC(=O)[C@H](C)NP(=O)(OC[C@@]1(N=[N+]=[N-])O[C@@H](n2ccc(N)nc2=O)[C@@H](O)[C@@H]1O)Oc1ccccc1 (stereo partly drawn) [Compound 34]
EC50: > 100 µM

compound: [N-]=[N+]=N[C@]1(CO)O[C@@H](n2ccc(=O)[nH]c2=O)[C@H](F)[C@@H]1O [Compound 17, 4′-azido-2′-deoxy-2′-fluorouridine]
EC50: > 100 µM

compound: C[C@]1(F)[C@H](n2ccc(=O)[nH]c2=O)O[C@@](CO)(N=[N+]=[N-])[C@H]1O [Compound 51]
EC50: > 100 µM

compound: CC(C)OC(=O)[C@H](C)NP(=O)(N[C@@H](C)C(=O)OC(C)C)OC[C@@]1(N=[N+]=[N-])O[C@@H](n2ccc(=O)[nH]c2=O)[C@H](F)[C@@H]1O [Compound 40]
EC50: > 100 µM

compound: CC(C)OC(=O)[C@H](C)NP(=O)(OC[C@@]1(N=[N+]=[N-])O[C@@H](n2cnc3c(N)ncnc32)[C@H](F)[C@@H]1O)Oc1ccccc1 (stereo partly drawn) [Compound 37]
EC50: 1 to 10 µM

compound: C[C@]1(F)[C@H](n2ccc(N)nc2=O)O[C@@](CO)(N=[N+]=[N-])[C@H]1O [Compound 38]
EC50: > 100 µM

compound: CC(C)OC(=O)[C@H](C)NP(=O)(OC[C@@]1(N=[N+]=[N-])O[C@@H](n2ccc(N)nc2=O)C(F)(F)[C@@H]1O)Oc1ccccc1 (stereo partly drawn) [Compound 18]
EC50: 1 to 10 µM

compound: [N-]=[N+]=N[C@]1(CO)O[C@@H](n2ccc(N)nc2=O)[C@H](O)[C@@H]1O [Compound 7, 4′-azidocytidine]
EC50: 1 to 10 µM

compound: CC(C)OC(=O)[C@H](C)NP(=O)(N[C@@H](C)C(=O)OC(C)C)OC[C@@]1(N=[N+]=[N-])O[C@@H](n2ccc(=O)[nH]c2=O)C(F)(F)[C@@H]1O [Compound 39]
EC50: > 100 µM

compound: CC(C)OC(=O)[C@H](C)NP(=O)(OC[C@@]1(N=[N+]=[N-])O[C@@H](n2ccc(=O)[nH]c2=O)C(F)(F)[C@@H]1O)Oc1ccccc1 (stereo partly drawn) [Compound 19]
EC50: > 100 µM

Values were extracted from patent US8877731B2.
